assay: Pharmacokinetic assay, intravenous and oral administration; format: in vivo, Sprague-Dawley rats or beagle dogs; conditions: plasma; oral administration in rats or dogs; read-out: oral bioavailabilty
experimental_readout: bioavailability

Below are worked cases with known answers.
INSERT INTO measurements (molecule, measured_value) VALUES
  ('COc1cc(P(C)(C)=O)ccc1-c1cnc(N)c(OC(C)c2c(Cl)ccc(F)c2Cl)c1 (stereo not drawn)', '> 20%'),
  ('CC(Oc1cc(-c2ccc(P(C)(C)=O)cc2F)cnc1N)c1c(Cl)ccc(F)c1Cl (stereo not drawn)', '> 20%');

Query CC(Oc1cc(-c2ccc(P(C)(C)=O)cc2)cnc1N)c1c(Cl)ccc(F)c1Cl (stereo not drawn) yields bioavailability of > 20%
